Target: Syk kinase (Homo sapiens, UniProt P43405)
Construct: purchased
Test: Syk kinase inhibition, Caliper LabChip off-chip mobility-shift kinase assay
Assay type: biochemical
Settings: Caliper LabChip assay; read-out: Syk Enzyme IC50
pIC50: −log10 of the molar value.
readout.name: pIC50

Past entries and their recorded results:
{"columns": ["compound", "pIC50"],
 "data": [
  ["CCn1ccc2cc(Nc3cnccn3)nc(N[C@H](CO)C(C)C)c2c1=O", 6.91],
  ["Cn1cc(-c2cc(Nc3cc4ccn(CCO)c(=O)c4c(NC(C)(C)C)n3)ncn2)cn1", 6.63],
  ["CC1(Nc2nc(Nc3cc(C(C)(C)O)ncn3)cc3ccn(CC(N)=O)c(=O)c23)CC1", 6.83]
]}

a: CCn1ccc2cc(Nc3cc(C)ccn3)nc(N[C@H](C)CO)c2c1=O
b: CC(C)(C)Nc1nc(Nc2cc(CCO)ccn2)cc2ccn(CCO)c(=O)c12
c: COCc1ccnc(Nc2cc3ccn(CCO)c(=O)c3c(NC(C)(C)C)n2)c1
d: C[C@@H](CO)Nc1nc(Nc2cnccn2)cc2ccn(CCN3CCOCC3)c(=O)c12
*Q* Arrange items by their pIC50 values in increasing order. Would you mind listing the labels in the order asked for?
*A* d, a, c, b

a: CC1(Cn2ccc3cc(-c4cnc(N)nc4)nc(NC4CCCC4)c3c2=O)COC1
b: CC(C)(C)Nc1nc(Nc2cc(CO)ncn2)cc2ccn(CCO)c(=O)c12
c: CC(C)(C)Nc1nc(Nc2cc(C(C)(C)C(N)=O)ccn2)cc2ccn(CCO)c(=O)c12
*Q* Please rank these compounds by pIC50 in descending order. Your task in answering is to list the labels in the requested order.
*A* b, a, c

----------
Target: Syk kinase (Homo sapiens)
Construct: purchased
Assay: Syk kinase inhibition, Caliper LabChip off-chip mobility-shift kinase assay
Format: biochemical
Details: read-out: Syk Enzyme IC50
pIC50: −log10 of the molar value.
readout.name: pIC50

{"columns": ["compound", "pIC50"],
 "data": [
  ["O=c1[nH]ccc2cc(CCO)nc(Nc3ccc(N4CCOCC4)cc3)c12 [compound 244]", 7.51]
]}

1: CCC(=O)N1CCC(c2ccc(Nc3nc(-c4cncc(OC)n4)cc4cc[nH]c(=O)c34)cc2C)CC1 [compound 80]
2: Cc1ccnc(Nc2cc3cc[nH]c(=O)c3c(N3CCOCC3)n2)c1 [compound 272]
3: COc1cncc(-c2cc3cc[nH]c(=O)c3c(Nc3ccc(C4CCN(CCCC#N)CC4)c(C)c3)n2)n1 [compound 172]
*Q* # sort list by recorded pIC50, greatest to least Give your ranking as a list of the labels in the requested order.
*A* 3, 1, 2
(3: 7.72, 1: 7.20, 2: 6.56)

P: Cc1ccnc(Nc2cc3ccn(C)c(=O)c3c(Nc3ccc(C(N)=O)cc3)n2)c1 [compound 483]
Q: COCCCNc1nc(Nc2ccccn2)cc2cc[nH]c(=O)c12 [compound 190]
*Q* Two entries are listed, P and Q . Which one carries the higher pIC50? Mark your selection by writing its label.
*A* P
(P: 7.21, Q: 6.54)

A: COc1cncc(-c2cc3cc[nH]c(=O)c3c(Nc3ccc(C4CCN(CCF)CC4)c(C)c3)n2)n1 [compound 79]
B: Cc1ccnc(Nc2cc3cc[nH]c(=O)c3c(NCC(C)C)n2)c1 [compound 282]
C: CCn1ccc2cc(Nc3cnccn3)nc(NC(C)(C)CO)c2c1=O [compound 471]
*Q* Please list these compounds in decreasing order of pIC50. Please respond by ranking the labels in the order requested.
*A* A, C, B
